These entries and their values trace back to ChEMBL document CHEMBL4011636.

- procedure.text: Drug uptake in Sprague-Dawley rat brain at 30 mg/kg, po measured at 2 hrs post dose by LC/MS-MS analysis
- Assay type: ADME, organism-based
- assay.setup: read-out: Drug uptake

smiles.str: Cn1nc(-c2cccc3ccccc23)cc1C(=O)N1CCC(CO)CC1
concentration at 2 h / nM: 721

* * *

- assayed.target: 5-hydroxytryptamine receptor 2A (Homo sapiens, UniProt P28223)
- Sequence (P28223 whole entry): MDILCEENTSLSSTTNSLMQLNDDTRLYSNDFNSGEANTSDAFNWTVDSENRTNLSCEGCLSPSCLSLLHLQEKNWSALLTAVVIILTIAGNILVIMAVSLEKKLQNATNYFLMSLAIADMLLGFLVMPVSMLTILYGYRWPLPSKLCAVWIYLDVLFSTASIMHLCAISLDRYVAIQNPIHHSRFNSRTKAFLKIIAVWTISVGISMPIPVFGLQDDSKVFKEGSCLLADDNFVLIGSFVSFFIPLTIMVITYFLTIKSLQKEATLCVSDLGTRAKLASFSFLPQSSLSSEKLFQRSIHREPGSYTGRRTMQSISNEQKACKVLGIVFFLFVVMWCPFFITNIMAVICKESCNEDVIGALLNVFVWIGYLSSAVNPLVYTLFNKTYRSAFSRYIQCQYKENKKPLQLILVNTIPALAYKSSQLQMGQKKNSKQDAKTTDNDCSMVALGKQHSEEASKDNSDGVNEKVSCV
- procedure.text: Agonist activity at recombinant human 5-HT2A receptor expressed in HEK293E cells assessed as induction of intracellular Ca2+ levels after 90 secs by Fluo-4-dye based FLIPR assay
value.type: EC50

compound: Cc1nc(-c2cccc3ccccc23)sc1C(=O)N(C)CCc1cccnc1
value.type: EC50
result: > 10 µM
//
compound: CCn1nc(-c2cccc3ccccc23)cc1-c1ncccn1
value.type: EC50
result: > 5 µM
//
compound: O=C(c1csc(-c2cccc(Cl)c2Cl)n1)N1CC2CC1CO2 (configuration not stated)
value.type: EC50
result: > 10 µM
//
compound: O=C(c1cnc(-c2cccc3ccccc23)s1)N1CCOCC1
value.type: EC50
result: > 10 µM
//
compound: CCn1nc(-c2cccc3cccnc23)cc1-c1ccc(N)nn1
value.type: EC50
result: 0.635 µM
//
compound: O=C(c1csc(-c2cccc3ccccc23)n1)N1CCOCC1
value.type: EC50
result: > 10 µM
//
compound: CCn1nc(-c2cccc3cccnc23)cc1-c1cccnn1
value.type: EC50
result: 0.151 µM
//
compound: Cn1cc(-c2cccc3ccccc23)nc1C(=O)N1CCC(CO)CC1
value.type: EC50
result: > 10 µM
//
compound: O=C(c1csc(-c2ccc(Cl)cc2Cl)n1)N1CCOCC1
value.type: EC50
result: > 10 µM
//
compound: CCn1nc(-c2cccc3ncccc23)cc1-c1cccnn1
value.type: EC50
result: > 10 µM
//
compound: CCn1nc(-c2cccc3ccccc23)cc1-c1nccn1C
value.type: EC50
result: > 10 µM
//
compound: Cc1cn(-c2cccc3ccccc23)cc1C(=O)N1CCC(CO)CC1
value.type: EC50
result: > 10 µM

* * *

- procedure.text: Agonist activity at recombinant human 5-HT2C receptor D134A mutant expressed in HEK293E cells assessed as induction of intracellular Ca2+ levels after 90 secs by Fluo-4-dye based FLIPR assay
- Format: cell-based
- assay.setup: HEK293

smiles.str: Cc1nc(-c2cccc3ccccc23)sc1C(=O)N1CCN(C)CC1
EC50: 130 nM
//
smiles.str: O=C(c1csc(-c2cccc(Cl)c2Cl)n1)N1CCOCC1
EC50: 2 nM

* * *

- procedure.text: Plasma concentration in Sprague-Dawley rat at 30 mg/kg, po measured at 1 hr post dose by LC/MS-MS analysis
- Type: ADME, organism-based
value.type: concentration at 1 h (nM)

smiles.str: Cc1[nH]c(-c2cccc3ccccc23)cc1C(=O)N1CCC(CO)CC1
unit.spec: nM
measured.number: 1140

* * *

- procedure.text: Half life in rat microsomes
- Format: ADME, Microsome
value.type: half-life (min)

smiles.str: CCn1nc(-c2cccc3cccnc23)cc1-c1ccc(N)nn1
measured.number: 25
--
smiles.str: Cc1[nH]c(-c2cccc3ccccc23)cc1C(=O)N1CCC(CO)CC1
measured.number: 11
--
smiles.str: Cc1nc(-c2cccc3ccccc23)sc1C(=O)N1CCC(CO)CC1
measured.number: 6
--
smiles.str: Cn1nc(-c2cccc3ccccc23)cc1C(=O)N1CCC(CO)CC1
measured.number: 8

* * *

- assayed.target: 5-hydroxytryptamine receptor 2C (Homo sapiens, UniProt P28335)
- Sequence (P28335 whole entry): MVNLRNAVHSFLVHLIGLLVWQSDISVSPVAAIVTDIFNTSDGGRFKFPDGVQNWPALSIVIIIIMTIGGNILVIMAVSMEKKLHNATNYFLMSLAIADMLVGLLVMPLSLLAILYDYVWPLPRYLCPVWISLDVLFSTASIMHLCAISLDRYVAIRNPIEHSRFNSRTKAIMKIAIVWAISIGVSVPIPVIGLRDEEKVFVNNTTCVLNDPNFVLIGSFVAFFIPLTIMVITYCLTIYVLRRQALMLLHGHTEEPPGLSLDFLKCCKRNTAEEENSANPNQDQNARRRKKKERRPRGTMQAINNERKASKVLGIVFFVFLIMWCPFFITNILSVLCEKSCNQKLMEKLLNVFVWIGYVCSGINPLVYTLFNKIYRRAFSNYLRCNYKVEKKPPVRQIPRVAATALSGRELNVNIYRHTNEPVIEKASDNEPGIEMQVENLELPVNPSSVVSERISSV
- procedure.text: Agonist activity at recombinant human 5-HT2C receptor expressed in HEK293E cells assessed as induction of intracellular Ca2+ levels after 90 secs by Fluo-4-dye based FLIPR assay
- Format: functional, cell-based, HEK293
value.type: EC50

compound: Cc1nc(-c2cccc3ccccc23)sc1C(=O)N1CCc2[nH]cnc2C1
value.type: EC50
result: 68 nM
--
compound: CCn1nc(-c2cccc3ccccc23)cc1-c1nccn1C
value.type: EC50
result: 27 to 37 nM
--
compound: O=C(c1csc(-c2cccc(Cl)c2Cl)n1)N1CC2CC1CO2 (configuration not stated)
value.type: EC50
result: 129 to 315 nM
--
compound: O=C(c1csc(-c2cccnc2)n1)N1CCOCC1
value.type: EC50
result: > 10000 nM
--
compound: Cc1nc(-c2cccc3ccccc23)sc1C(=O)N(C)C
value.type: EC50
result: 59 to 72 nM
--
compound: Cc1nc(-c2cccc(Cl)c2Cl)sc1C(=O)N1CCOCC1
value.type: EC50
result: > 10000 nM
--
compound: Cc1[nH]c(-c2cccc3ccccc23)cc1C(=O)N1CCC(CO)CC1
value.type: EC50
result: 12 nM

* * *

- assayed.target: UniProtKB P28335
- procedure.text: Intrinsic activity at recombinant human 5-HT2C receptor expressed in HEK293E cells assessed as induction of intracellular Ca2+ levels after 90 secs by Fluo-4-dye based FLIPR assay relative to serotonin
- Type: functional, cell-based
- assay.setup: HEK293
value.type: Intrinsic activity

smiles.str: Cc1nc(-c2cccc3ccccc23)n(C)c1C(=O)N1CCC(CO)CC1
measured.number: 0.4
//
smiles.str: O=C(c1csc(-c2cccc3ccccc23)n1)N1CCOCC1
measured.number: 0.6
//
smiles.str: CCn1nc(-c2cccc3ccccc23)cc1-c1cncn1C
measured.number: 0.2
//
smiles.str: Cc1oc(-c2cccc3ccccc23)nc1C(=O)N1CCC(CO)CC1
measured.number: 1
//
smiles.str: Cc1nc(-c2cccc3ccccc23)sc1C(=O)N(C)Cc1ccn(C)n1
measured.number: 1
//
smiles.str: CCn1nc(-c2ccnc3ccccc23)cc1-c1cccnn1
measured.number: 0.6
//
smiles.str: O=C(c1csc(-c2ccccc2Cl)n1)N1CCOCC1
measured.number: 0.1
//
smiles.str: O=C(c1cnc(-c2cccc3ccccc23)s1)N1CCOCC1
measured.number: 0.6
//
smiles.str: Cc1nc(-c2cccc3ccccc23)sc1C(=O)N(C)CCO
measured.number: 0.9
//
smiles.str: CCn1nc(-c2cccc3ccccc23)cc1-c1ncnn1C
measured.number: 0.7
//
smiles.str: O=C(c1csc(-c2cccc(Cl)c2Cl)n1)N1CCCCC1
measured.number: 0.3
//
smiles.str: Cc1[nH]c(-c2cccc3ccccc23)cc1C(=O)N1CCC(CO)CC1
measured.number: 0.9
//
smiles.str: O=C(c1nc(-c2cccc(Cl)c2Cl)cs1)N1CCOCC1
measured.number: 0.8
//
smiles.str: CCn1nc(-c2cccc3ccccc23)cc1-c1ncccn1
measured.number: 0.4
//
smiles.str: CCn1nc(-c2cccc3cnccc23)cc1-c1cccnn1
measured.number: 0.7
//
smiles.str: Cn1cc(-c2cccc3ccccc23)cc1C(=O)N1CCC(CO)CC1
measured.number: 1
//
smiles.str: CCn1nc(-c2cccc3ncccc23)cc1-c1cccnn1
measured.number: 0.3
//
smiles.str: O=C(c1nc(-c2cccc3ccccc23)cs1)N1CCOCC1
measured.number: 0.6
//
smiles.str: CCn1nc(-c2cccc3ccccc23)cc1-c1ccccn1
measured.number: 0.8
//
smiles.str: Cc1nc(-c2cccc3ccccc23)sc1C(=O)N(C)Cc1cccnc1
measured.number: 0.8
//
smiles.str: Cc1nc(-c2cccc3ccccc23)sc1C(=O)N(C)CCc1cccnc1
measured.number: 0.7
//
smiles.str: Cc1nc(-c2cccc3ccccc23)sc1C(=O)N1CCOCC1
measured.number: 0.8
//
smiles.str: Cc1nn(-c2cccc3ccccc23)cc1C(=O)N1CCC(CO)CC1
measured.number: 1
//
smiles.str: CCn1nc(-c2cccc3ccncc23)cc1-c1ccc(N)nn1
measured.number: 1.1
//
smiles.str: Cc1nc(-c2cccc3ccccc23)oc1C(=O)N1CCC(CO)CC1
measured.number: 0.9
//
smiles.str: O=C(c1csc(-c2cccc(Cl)c2Cl)n1)N1CCCOCC1
measured.number: 0.5

* * *

- assayed.target: 5-hydroxytryptamine receptor 2C (Homo sapiens)
- Sequence (P28335 whole entry): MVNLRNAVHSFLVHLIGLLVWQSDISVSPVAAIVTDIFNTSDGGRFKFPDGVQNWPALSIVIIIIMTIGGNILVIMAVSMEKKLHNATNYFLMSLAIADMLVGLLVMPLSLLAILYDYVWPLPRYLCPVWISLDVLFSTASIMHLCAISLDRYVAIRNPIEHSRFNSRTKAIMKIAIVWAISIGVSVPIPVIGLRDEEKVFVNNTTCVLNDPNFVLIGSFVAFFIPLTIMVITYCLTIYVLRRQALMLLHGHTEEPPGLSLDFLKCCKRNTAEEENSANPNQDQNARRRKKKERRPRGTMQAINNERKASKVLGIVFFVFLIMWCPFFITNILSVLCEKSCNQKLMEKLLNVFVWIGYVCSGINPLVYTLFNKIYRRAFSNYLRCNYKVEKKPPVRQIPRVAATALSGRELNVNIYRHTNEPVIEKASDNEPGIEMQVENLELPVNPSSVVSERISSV
- procedure.text: Agonist activity at recombinant human 5-HT2C receptor expressed in HEK293E cells assessed as induction of intracellular Ca2+ levels after 90 secs by Fluo-4-dye based FLIPR assay
pEC50: −log10 of the molar value.
Each entry below carries its reported pEC50.
value.type: pEC50

smiles.str: Cn1cc(-c2cccc3ccccc23)nc1C(=O)N1CCC(CO)CC1
value.type: pEC50
result: 5.45 to 5.74
//
smiles.str: Cc1nc(-c2cccc3ccccc23)sc1C(=O)N1CCN(C)CC1
value.type: pEC50
result: 6.91 to 7.37
//
smiles.str: O=C(c1csc(-c2cccc3ccccc23)n1)N1CCOCC1
value.type: pEC50
result: 5.93 to 6.12
